As shown below, each of these binders has a reported Phage binding ELISA signal, Anti-PSMA Fab with PSMA antigen value.
- assayed system: T1, PSMA Fab (SEQ ID NOs: 19, 20)
- T1 construct: also called Anti-PSMA Fab; 006 PSMA Fab
- test protocol: clonal phage ELISA on captured PSMA Fab, wells pre-incubated with PSMA antigen as competitor
recorded endpoint: Phage binding ELISA signal, Anti-PSMA Fab with PSMA antigen

- binder: "VTPQCVPMWMCTGF (Tested as crude clonal phage supernatant) [Phage-3543]"
  recorded number: 0.105
- binder: "FEVACIPQWMCDGF (Tested as crude clonal phage supernatant) [Phage-3537]"
  recorded number: 0.118
- binder: "VVKACIPEWMCSGF (Tested as crude clonal phage supernatant) [Phage-3545]"
  recorded number: 0.125
- binder: "ESVYCIPQWMCSGL (Tested as crude clonal phage supernatant) [Phage-3534]"
  recorded number: 0.0698
- binder: "ENLICKPAWMCVGF (Tested as crude clonal phage supernatant) [Phage-3541]"
  recorded number: 0.0738
- binder: "LNAMCVPAWMCTGF (Tested as crude clonal phage supernatant) [Phage-3535]"
  recorded number: 0.0634
- binder: "VKPMCVPEWMCSGL (Tested as crude clonal phage supernatant) [Phage-3540]"
  recorded number: 0.0907
- binder: "LEMACRPMWMCQGL (Tested as crude clonal phage supernatant) [Phage-3536]"
  recorded number: 0.0725
- binder: "IARTCVPAWMCSGF (Tested as crude clonal phage supernatant) [Phage-3538]"
  recorded number: 0.102
- binder: "FLQACKPPWMCTGF (Tested as crude clonal phage supernatant) [Phage-3544]"
  recorded number: 0.146
